Where do the numbers come from? From paper PMC5418314.

- experimentSummary: Phase I plasma pharmacokinetics
- Format: in vivo, human
- conditionSet: human, plasma, iv, 6.2 mg/kg, Cohort 6: 6.2 mg/kg; N = 6; 90-min IV infusion; Cycle 1 Day 8; plasma LC-MS; read-out: Peak plasma concentration, Mean (SD)
Ends that are not written are not given here.

- residueSequence: "KEFLHPSKVDLPR [SOR-C13]"
  Cmax, ng/mL: 1440

----------
- experimentSummary: Phase I plasma pharmacokinetics
- Type: in vivo, human
- conditionSet: human, plasma, iv, 4.13 mg/kg, Cohort 5: 4.13 mg/kg; N = 3; 90-min IV infusion; Cycle 1 Day 8; plasma LC-MS; read-out: Time to peak plasma concentration, Mean (SD)
Ends that are not written are not given here.

- residueSequence: "KEFLHPSKVDLPR [SOR-C13]"
  readoutUnit: "min"
  Tmax: 18.2

----------
- experimentSummary: Phase I plasma pharmacokinetics
- Assay type: in vivo, human
- conditionSet: human, plasma, iv, 1.375 mg/kg, Cohort 3: 1.375 mg/kg; N = 3; 90-min IV infusion; Cycle 1 Day 8; plasma LC-MS; read-out: AUCtau, Median
Ends that are not written are not given here.

- residueSequence: "KEFLHPSKVDLPR [SOR-C13]"
  readoutUnit: "ng·h/mL"
  AUC(0-t): 230

----------
- experimentSummary: Phase I plasma pharmacokinetics
- Type: in vivo, human
- conditionSet: human, plasma, iv, 4.13 mg/kg, Cohort 5: 4.13 mg/kg; N = 3; 90-min IV infusion; Cycle 1 Day 8; plasma LC-MS; read-out: AUCtau, Mean (SD)
Ends that are not written are not given here.

- residueSequence: "KEFLHPSKVDLPR [SOR-C13]"
  readoutUnit: "µg·h/mL"
  AUC(0-t): 0.197

----------
- experimentSummary: Phase I plasma pharmacokinetics
- Type: in vivo, human
- conditionSet: human, plasma, iv, 6.2 mg/kg, Cohort 6: 6.2 mg/kg; N = 6; 90-min IV infusion; Cycle 1 Day 10; plasma LC-MS; read-out: Peak plasma concentration, Mean (SD)
Ends that are not written are not given here.

- residueSequence: "KEFLHPSKVDLPR [SOR-C13]"
  Cmax (ng/mL): 1380

----------
- experimentSummary: Phase I plasma pharmacokinetics
- Type: in vivo, human
- conditionSet: human, plasma, iv, 6.2 mg/kg, Cohort 6: 6.2 mg/kg; N = 6; 90-min IV infusion; Cycle 1 Day 8; plasma LC-MS; read-out: AUCtau, Median
Ends that are not written are not given here.

- residueSequence: "KEFLHPSKVDLPR [SOR-C13]"
  AUC(0-t) / ng·h/mL: 843

----------
- experimentSummary: Phase I plasma pharmacokinetics
- Assay type: in vivo, human
- conditionSet: human, plasma, iv, 4.13 mg/kg, Cohort 5: 4.13 mg/kg; N = 3; 90-min IV infusion; Cycle 1 Day 3; plasma LC-MS; read-out: AUCtau, Mean (SD)
- Experimental: Blood samples were taken on Days 1, 3, 8 and 10 of Cycle 1 to assess the pharmacokinetic (PK) profile of SOR-C13 at the various doses used. Plasma samples for the IV 20 min infusion were taken at pre-infusion, 5, 15 min after the start of infusion and post-infusion at 2, 5, 10 and 30 min and 1, 4 h. Plasma samples for SOR-C13 analysis for the 90 min infusion were taken pre-infusion, at 5, 15 and 45 min after the start of infusion, and at 2, 5, 10 and 30 min post-infusion. […]
Ends that are not written are not given here.
measure: AUC(0-t) (ng·h/mL)

- residueSequence: "KEFLHPSKVDLPR [SOR-C13]"
  readoutUnit: "ng·h/mL"
  observed: 373
